target_entity: human mGluR2 receptor (Homo sapiens)
Construct: expressed in transfected cells; host or cells: CHO cells (membrane preparation)
Sequence (Q14416 19-872): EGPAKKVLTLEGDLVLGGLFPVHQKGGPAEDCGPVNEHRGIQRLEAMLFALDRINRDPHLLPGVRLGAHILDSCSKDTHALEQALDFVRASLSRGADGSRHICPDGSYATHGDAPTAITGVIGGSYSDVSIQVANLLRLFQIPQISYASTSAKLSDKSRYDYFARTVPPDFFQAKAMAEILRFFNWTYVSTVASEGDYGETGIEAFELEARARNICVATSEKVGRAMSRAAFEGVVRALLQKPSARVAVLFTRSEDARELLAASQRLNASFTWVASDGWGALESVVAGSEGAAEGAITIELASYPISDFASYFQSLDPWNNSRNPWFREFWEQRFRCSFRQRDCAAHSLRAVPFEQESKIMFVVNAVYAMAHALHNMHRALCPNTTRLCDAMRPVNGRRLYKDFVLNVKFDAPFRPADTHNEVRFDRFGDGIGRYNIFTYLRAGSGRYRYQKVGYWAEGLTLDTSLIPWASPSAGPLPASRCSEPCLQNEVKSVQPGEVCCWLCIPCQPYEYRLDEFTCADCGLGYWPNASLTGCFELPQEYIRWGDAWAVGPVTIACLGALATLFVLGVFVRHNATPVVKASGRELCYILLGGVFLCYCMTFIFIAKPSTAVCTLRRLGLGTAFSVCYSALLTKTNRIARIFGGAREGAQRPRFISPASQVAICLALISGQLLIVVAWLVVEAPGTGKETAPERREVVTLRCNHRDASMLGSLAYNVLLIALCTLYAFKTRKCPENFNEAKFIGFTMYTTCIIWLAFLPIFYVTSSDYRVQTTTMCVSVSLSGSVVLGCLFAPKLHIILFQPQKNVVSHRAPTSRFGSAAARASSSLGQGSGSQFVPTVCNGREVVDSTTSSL
protocol_text: [35S]GTPγS binding assay (GTPγS-PAM): positive allosteric modulation in presence of glutamate at EC25, membranes from transfected CHO cells
Assay type: biochemical
test_parameters: in presence of mGluR2 agonist glutamate at predetermined EC25 concentration, averages of duplicate values of 11-concentration response curves, read-out: GTPgS - hR2 PAM pEC50 (converted)
quantity_measured: EC50 (nM)

>>> meas_value("N#Cc1c(-c2ccccc2)ccn(CCOc2ccccc2)c1=O")
2510
>>> meas_value("COc1cc(-c2ccn(CCC(C)C)c(=O)c2C#N)ccc1OC(C)=O")
5010
>>> meas_value("CC(C)Cn1ccc(N2CCN(Cc3ccc(OC(F)(F)F)c(Cl)c3)CC2)c(C#N)c1=O")
1000

[A] CC(C)CCn1ccc(N2CCN(C/C=C/c3ccccc3)CC2)c(C#N)c1=O
[B] COc1ccc(C#Cc2ccn(CCC(C)C)c(=O)c2C#N)cc1
Query :: Which value of EC50 is greater, the one for A or the one for B ? Answer by stating the label of the chosen item.
Result :: A

====

target_entity: human mGluR2 receptor (Homo sapiens)
Construct: expressed in transfected cells; host or cells: CHO cells (membrane preparation)
protocol_text: [35S]GTPγS binding assay (GTPγS-PAM): positive allosteric modulation in presence of glutamate at EC25, membranes from transfected CHO cells
Format: biochemical
test_parameters: in presence of mGluR2 agonist glutamate at predetermined EC25 concentration, averages of duplicate values of 11-concentration response curves, read-out: GTPgS - hR2 PAM pEC50 (converted)
quantity_measured: EC50 (µM)

Example results:
>>> meas_value("N#Cc1c(-c2ccc(Oc3ccccc3)cc2)ccn(Cc2ccc(OC(F)(F)F)cc2)c1=O")
0.251
>>> meas_value("CC(C)CCn1ccc(CCc2cccc(N(C)C)c2)c(C#N)c1=O")
1.58
>>> meas_value("CCCCn1ccc(-c2ccc(Oc3ncccc3C(F)(F)F)cc2)c(C#N)c1=O")
0.158
>>> meas_value("N#Cc1c(N2CCN(Cc3cc(F)cc(C(F)(F)F)c3)CC2)ccn(CC2CC2)c1=O")
5.01
>>> meas_value("CCCCn1ccc(N2CCN(c3nccc(NCC)n3)CC2)c(C#N)c1=O")
1.58

[A] CC(C)CCn1ccc(-c2ccc(CN(C)Cc3ccccn3)cc2)c(C#N)c1=O
[B] N#Cc1c(N2CCN(Cc3ccccc3)CC2)ccn(Cc2ccc(F)cc2)c1=O
Query :: Which value of EC50 is greater, the one for A or the one for B ? Answer by stating the label of the chosen item.
Result :: B

[I] COCCN(C)c1ccc(-c2ccn(CCC(C)C)c(=O)c2C#N)cc1OC
[II] CC(=O)N1CCN(c2cccc(-c3ccn(CCC(C)C)c(=O)c3C#N)c2)CC1
Query :: Lowest EC50? choose I or II Answer by stating the label of the chosen item.
Result :: II

====

target_entity: human mGluR2 receptor (Homo sapiens)
Construct: expressed in transfected cells; host or cells: CHO cells (membrane preparation)
protocol_text: [35S]GTPγS binding assay (GTPγS-PAM): positive allosteric modulation in presence of glutamate at EC25, membranes from transfected CHO cells
Assay type: biochemical
test_parameters: in presence of mGluR2 agonist glutamate at predetermined EC25 concentration, averages of duplicate values of 11-concentration response curves, read-out: GTPgS - hR2 PAM pEC50 (converted)
quantity_measured: EC50 (µM)

>>> meas_value("CCCC(C)n1ccc(-c2cccs2)c(C#N)c1=O (centres unmarked) [1-079]")
5.01

[I] CC(C)CCn1ccc(N2C[C@@H]3C[C@H]2CN3Cc2ccccc2)c(C#N)c1=O [5-004]
[II] CC(C)CCn1ccc(N2CCC(c3noc(CC(C)(C)C)n3)CC2)c(C#N)c1=O [4-040]
[III] CCCCn1ccc(Oc2ccc(Br)cc2)c(C#N)c1=O [1-273]
[IV] CC(=O)c1ccc(-c2ccn(CCC(C)C)c(=O)c2C#N)cc1 [1-238]
Query :: Put the items in order so that reported EC50 rises from first to last. Thanks in advance for listing the labels in the requested order.
Result :: II, III, IV, I
